measurement description: protein stability index of a GFP-peptide fusion (yeast GPS) (PSI 1-4); higher = more stable; sorted into four equal gates, so the index is relative within each strain
condition context: pdr5∆
Decision: protein stability index >= 3 yields condition met, all other cases yield condition not met.

sequence input: DESSGTSRIDEEKPGLI [SMC4]
label: condition met

sequence input: TTTTTTTNNNNTNNNNT [SWI1]
label: condition met

sequence input: LKTVLHNGRDKIQFHIH [RGR1]
label: condition not met

sequence input: AARDNKKTRIIPRHLQL [HTA1]
label: condition met

Now turn to the next sequence.
# input Please check the record GVNGYIWLRKTSQMDLA [RRP4] and state if its protein stability index is at or above 3.
# output condition not met

* * *

measurement description: protein stability index of a GFP-peptide fusion (yeast GPS) (PSI 1-4); higher = more stable; sorted into four equal gates, so the index is relative within each strain
condition context: pdr5∆
Decision: protein stability index >= 3 yields TRUE, all other cases yield FALSE.

# input Please check the record QNNSTGSSSIIYYDSYI [SSN2] and state if its protein stability index is at or above 3.
# output FALSE

# input Please check the record QSRLMSTSYHLNSTLES [MED6] and state if its protein stability index is at or above 3.
# output FALSE

# input Please check the record VPTSIQTKRWPTMYTRL [SIN4] and state if its protein stability index is at or above 3.
# output FALSE

# input Please check the record LERYVKRCMDDLNPLKT [RPO31] and state if its protein stability index is at or above 3.
# output TRUE

# input Please check the record QRRCLHCGALNGVVKKA [RPO31] and state if its protein stability index is at or above 3.
# output FALSE

* * *

measurement description: protein stability index of a GFP-peptide fusion (yeast GPS) (PSI 1-4); higher = more stable; sorted into four equal gates, so the index is relative within each strain
condition context: pdr5∆
Hi there, I'd appreciate the recorded protein stability index for every entry that follows.
One number for each entry.

Known protein stability index results, listed for orientation:
sequence input: NLKGRPYTGWVDSKTKE [FAS2]
property name: protein stability index
observed measurement: 2.95

sequence input: ASITGTGSNDRCIGDSD [YMR129W/POM152]
property name: protein stability index
observed measurement: 2.78

sequence input: KLTAERANLRKYREGQV [POP1]
property name: protein stability index
observed measurement: 3.02

Below are some sequences; for each one, tell me its protein stability index.
1. LKTKLLEEVEGSCTGKF [RPB7]
2. ELQEKNVELLNCIRILA [YIL149C/MLP2]
3. LKDFNTERVVEIGPSPT [FAS2]
4. LAIADVETKLETKVDEL [DSN1]

# output
2.84
1.95
2.9
3.09

Below are some sequences; for each one, tell me its protein stability index.
1. QGTGKKTASLGNSKDDL [ISW2]
2. PTFTFGSSALADNKEDV [YLR335W/NUP2]
3. FEGTPPFSLTYVRTEET [YMR129W/POM152]
4. LLLAANTHLGARNVQVH [RPS0A]
5. DELCKLVTCEGSEEKAF [SRP54]
6. IDRKVEFSLPDLEGRAN [RPT1]
7. LAKIKEEEMAPYYKYLC [RPN7]

# output
2.9
3.06
2.63
1.21
2.3
3.37
1.74

* * *

measurement description: protein stability index of a GFP-peptide fusion (yeast GPS) (PSI 1-4); higher = more stable; sorted into four equal gates, so the index is relative within each strain
condition context: pdr5∆
Decision: protein stability index >= 2 yields T, all other cases yield F.

Example entries and their recorded answers appear below.
sequence input: IFALVFSSNERYFFWLQ [RPN13]
label: F

sequence input: KDIEKLTNEISDLKGKL [YIL149C/MLP2]
label: T

sequence input: KLTILQEGIEAIATTVI [RET1]
label: T

sequence input: NNPLVQKKNFLFKPLNK [ARP7]
label: T

sequence input: NNWFSLPGDMLAVCDEL [SIN4]
label: T

Now turn to the next sequence.
# input Please check the record TNNMEKIIEDLRQKHEF [SMC2] and state if its protein stability index is at or above 2.
# output T

* * *

measurement description: protein stability index of a GFP-peptide fusion (yeast GPS) (PSI 1-4); higher = more stable; sorted into four equal gates, so the index is relative within each strain
condition context: ubr1∆
Hi there, I'd appreciate the recorded protein stability index for every entry that follows.
Give bare numbers.

sequence input: PKFDVGALMALHGEGSG [RPS1A]
protein stability index: 1.57

Below are some sequences; for each one, tell me its protein stability index.
1. NTENNDPDIPMTIDLEP [IRR1]
2. RGTIPLLERYIGNLITR [PRP8]

# output
1: 3.14; 2: 1.6

Below are some sequences; for each one, tell me its protein stability index.
1. KNFSPTKRVEKPQLKFK [RRP6]
2. MAKVHGSLARAGKVKSQ [RPS30A]
3. LISSSLSNLSKDIKANL [YCS4]

# output
1. 3.21
2. 2.44
3. 2.35

Below are some sequences; for each one, tell me its protein stability index.
1. LLISYGVSIENENKVII [SRB4]
2. LLKEEKIIELMNKIFTI [YML103C/NUP188]
3. DQYIQKQVQISHHLKAD [YGL172W/NUP49]
4. IPVEILVRRLSDIKQGY [PRE9]
5. RLIDSMKQYSYLMDSKN [RRI1]

# output
2.93
1.79
3.07
2.87
2.87

Below are some sequences; for each one, tell me its protein stability index.
1. SLVALGIDPQDLKKLNL [CDC53]
2. ELEQLVEFNRKVVIPNL [RPN3]
3. KLYTKELSVTGSAINHH [YMR129W/POM152]
4. AKTLTYPEVVTPYNIDR [RPO21]

# output
1: 2.25; 2: 3.25; 3: 1.49; 4: 2.05

Below are some sequences; for each one, tell me its protein stability index.
1. ELNDNPAWFNNPRKRAI [YMR153W/NUP53]
2. LGIALIALGEDIGKEMS [RPN1]
3. ENNRLLFECRTCSYVEE [RPB9]
4. KDRLYCGKCHSVYKVNA [RPS31]
5. RQQYYSGVQVGGVGSMG [SNF6]
6. IASDGSECIVSIKSKVV [RRP42]
7. KAAFEDLKSKGLIPADA [FAS1]
8. LPSAVDGENDKKEATKP [YLR335W/NUP2]

# output
[2.98, 3.02, 3.29, 2.01, 2.24, 3.12, 3.35, 3.37]

Below are some sequences; for each one, tell me its protein stability index.
1. HAQSKREGRHSGYGKRK [RPL19A]
2. PNISHSNIDYQTLLANS [SNF2]
3. LEEFEFKHGPMSLINDA [SMD2]

# output
2.96
2.82
3.23

Below are some sequences; for each one, tell me its protein stability index.
1. DLWNNFGNIMDNLLEMS [RRP6]
2. KLVRDSFTSATERHIQV [PRE7]
3. STSENKISEGSAKPTFS [YOR098C/NUP1]
4. VIFDASIKDTQNVGQGK [BRN1]

# output
2.95
2.37
3.17
3.01

* * *

Hi there, I'd appreciate the recorded protein stability index for every entry that follows.
measurement description: protein stability index of a GFP-peptide fusion (yeast GPS) (PSI 1-4); higher = more stable; sorted into four equal gates, so the index is relative within each strain
condition context: ubr1∆
One number for each entry.

sequence input: NDFTTKLINIKKFDISN [MED1]
property name: protein stability index
observed measurement: 2.28
//
sequence input: DYTLQDIICEDSTLILE [RPB2]
property name: protein stability index
observed measurement: 2.15

Below are some sequences; for each one, tell me its protein stability index.
1. CVHMVYEYAEHDLLQII [SSN3]
2. SAIIENAFRKEELLLKD [GAL11]

# output
2.48
1.18

Below are some sequences; for each one, tell me its protein stability index.
1. PRMYHIGLRQFQQIQYE [POP1]
2. ASKGRTKIDMPIKNRKN [BRN1]
3. VSTPEKWDITTRNSNNL [BRR2]
4. PMETLLSGLSADKPFTR [YML031W/NDC1]
5. LSFVDIVLSKAASALDE [SIR4]
6. EYKTSSDSLGPDTSNEI [SRB2]
7. LLLAANTHLGARNVQVH [RPS0A]
8. EHKSQVVLYNYYLGQYY [CSN12]

# output
1. 1.48
2. 3.17
3. 3.04
4. 2.85
5. 2.21
6. 2.55
7. 1.13
8. 2.03

Below are some sequences; for each one, tell me its protein stability index.
1. FEKKLSIIKAKLPLLNE [YML103C/NUP188]
2. SVVRGNTFKVLSKFFFF [COB]
3. FSFGAKPAEKNNNETSK [YJL041W/NSP1]
4. PALLRPGRLDRKIEFPS [RPT3]
5. QNRPYNHPELQGITRNV [RPC17]
6. LRASFNKLSSILQNEHD [SRB4]

# output
1: 1.69; 2: 1.83; 3: 3.08; 4: 3; 5: 2.17; 6: 2.49

Below are some sequences; for each one, tell me its protein stability index.
1. QGNPKKRPGKLSDYIPG [CYT1]
2. KVSSASAAASESDVAKQ [RPL16B]
3. QLQQQPQMQCALQNLSQ [YGL172W/NUP49]
4. VTYALSGYVRSRGESDD [RPS21A]
5. GQPVNDFIDTATRHVLM [RPS3]
6. IDKFIMVVQKYKLSTVV [GRR1]

# output
3.17
2.97
2.18
3.3
2.96
1.86
